- System: Methicillin-sensitive Staphylococcus aureus
- PROCEDURE SUMMARY: MIC against clinically isolated aerobic Gram-positive strains
- Format: cell-based
- CONDITION NOTES: 33 strains
Provide the recorded MIC90 for the entries that follow.
Please respond with the number in µg/mL and leave the unit unwritten.

Task: State the recorded MIC90 for this entry: C[C@@H](O)[C@H]1C(=O)N2C(C(=O)O)=C(S[C@@H]3CN[C@H](/C=C/c4cc(C(=O)O)no4)C3)[C@H](C)[C@H]12 [Example]
Output: 0.12

Task: State the recorded MIC90 for this entry: C[C@@H](O)[C@H]1C(=O)N2C(C(=O)O)=C(S[C@@H]3CN[C@H](C(=O)Nc4cccc(C(=O)O)c4)C3)[C@H](C)[C@H]12 [EPM, ertapenem]
Output: 0.25

Task: State the recorded MIC90 for this entry: C[C@@H](O)[C@H]1C(=O)N2C(C(=O)O)=C(S[C@@H]3CN[C@H](C(=O)N(C)C)C3)[C@H](C)[C@H]12 [MPM, meropenem]
Output: 0.12

Task: State the recorded MIC90 for this entry: C[C@@H](O)[C@H]1C(=O)N2C(C(=O)O)=C(SCCN=CN)C[C@H]12 [IPM, Imipenem]
Output: 0.03

----------
- Tested on: Klebsiella oxytoca
- PROCEDURE SUMMARY: MIC against clinically isolated aerobic Gram-negative strains
- Assay type: cell-based
- CONDITION NOTES: 15 strains
ENDPOINT LABEL: MIC50
Please report the result as a number followed by the unit.

Task: State the recorded MIC50 for this entry: C[C@@H](O)[C@H]1C(=O)N2C(C(=O)O)=C(S[C@@H]3CN[C@H](/C=C/c4cc(C(=O)O)no4)C3)[C@H](C)[C@H]12
Output: 0.03 µg/mL

Task: State the recorded MIC50 for this entry: C[C@@H](O)[C@H]1C(=O)N2C(C(=O)O)=C(SCCN=CN)C[C@H]12
Output: 0.12 µg/mL

Task: State the recorded MIC50 for this entry: C[C@@H](O)[C@H]1C(=O)N2C(C(=O)O)=C(S[C@@H]3CN[C@H](C(=O)Nc4cccc(C(=O)O)c4)C3)[C@H](C)[C@H]12
Output: 0.008 µg/mL

Task: State the recorded MIC50 for this entry: C[C@@H](O)[C@H]1C(=O)N2C(C(=O)O)=C(S[C@@H]3CN[C@H](C(=O)N(C)C)C3)[C@H](C)[C@H]12
Output: 0.03 µg/mL

----------
- Test system: Streptococcus pyogenes
- PROCEDURE SUMMARY: MIC against clinically isolated aerobic Gram-positive strains
- Assay type: cell-based
- CONDITION NOTES: 15 strains
Provide the recorded MIC90 for the entries that follow.

Task: State the recorded MIC90 for this entry: C[C@@H](O)[C@H]1C(=O)N2C(C(=O)O)=C(SCCN=CN)C[C@H]12
Output: < 8 ng/mL

Task: State the recorded MIC90 for this entry: C[C@@H](O)[C@H]1C(=O)N2C(C(=O)O)=C(S[C@@H]3CN[C@H](C(=O)Nc4cccc(C(=O)O)c4)C3)[C@H](C)[C@H]12
Output: 150 ng/mL

Task: State the recorded MIC90 for this entry: C[C@@H](O)[C@H]1C(=O)N2C(C(=O)O)=C(S[C@@H]3CN[C@H](/C=C/c4cc(C(=O)O)no4)C3)[C@H](C)[C@H]12
Output: < 8 ng/mL

Task: State the recorded MIC90 for this entry: C[C@@H](O)[C@H]1C(=O)N2C(C(=O)O)=C(S[C@@H]3CN[C@H](C(=O)N(C)C)C3)[C@H](C)[C@H]12
Output: < 8 ng/mL
